In this section we review reported IC50 values for a set of molecules.
# System: HEL
# ASSAY_COMMENT: Antiproliferative activity against HEL cells assessed as cell growth inhibition incubated for 8 hrs by CCK8 assay
# Type: functional, cell-based
# MEASUREMENT_CONDITIONS: Homo sapiens

MOLECULE	CENSORING_SIGN	IC50, µM
CN1c2ccc(F)cc2C(=O)N2CCc3c([nH]c4ccc(OCCCCCC(=O)NO)cc34)C21 (centres undefined)	=	0.1
CC[C@@]1(O)C(=O)OCc2c1cc1n(c2=O)Cc2cc3c(CN(C)C)c(O)ccc3nc2-1	=	26
CN1c2ccc(F)cc2C(=O)N2CCc3c([nH]c4ccc(OCCCCCCC(=O)NO)cc34)C21 (centres undefined)	>	2
CN1c2ccc(F)cc2C(=O)N2CCc3c([nH]c4ccc(OCCCCC(=O)NO)cc34)C21 (centres undefined)	=	0.58
CN1c2ccc(F)cc2C(=O)N2CCc3c([nH]c4ccc(OCc5ccc(C(=O)NO)cc5)cc34)C21 (centres undefined)	>	2
CN1c2ccc(F)cc2C(=O)N2CCc3c([nH]c4ccc(OCCCC(=O)NO)cc34)C21 (centres undefined)	=	0.27
CN1c2ccc(F)cc2C(=O)N2CCc3c([nH]c4ccc(OCCCCC(=O)Nc5ccccc5N)cc34)C21 (centres undefined)	=	0.72
CN1c2ccc(F)cc2C(=O)N2CCc3c([nH]c4ccc(OCc5ccccc5C(=O)NO)cc34)C21 (centres undefined)	=	0.29
CN1c2ccc(F)cc2C(=O)N2CCc3c([nH]c4ccc(OCc5cccc(C(=O)NO)c5)cc34)C21 (centres undefined)	=	0.58

---

# System: HCT-116
# ASSAY_COMMENT: Antiproliferative activity against human HCT-116 cells assessed as cell growth inhibition incubated for 8 hrs by CCK8 assay
# Assay type: functional, cell-based
# MEASUREMENT_CONDITIONS: HCT-116, 8 h

COMPOUND	UNIT_TEXT	CENSORING_SIGN	IC50
CN1c2ccc(F)cc2C(=O)N2CCc3c([nH]c4ccc(OCc5cccc(C(=O)NO)c5)cc34)C21 (centres undefined)	nM	>	2000
CN1c2ccc(F)cc2C(=O)N2CCc3c([nH]c4ccc(OCCCC(=O)Nc5ccccc5N)cc34)C21 (centres undefined)	nM	=	1030
CN1c2ccc(F)cc2C(=O)N2CCc3c([nH]c4ccc(OCc5ccccc5C(=O)Nc5ccccc5N)cc34)C21 (centres undefined)	nM	=	220
CN1c2ccc(F)cc2C(=O)N2CCc3c([nH]c4ccc(OCCCCCC(=O)Nc5ccccc5N)cc34)C21 (centres undefined)	nM	>	2000

---

# Tested on: HCT-116
# ASSAY_COMMENT: Antiproliferative activity against human HCT-116 cells assessed as cell growth inhibition incubated for 8 hrs by CCK8 assay
# Format: functional, cell-based
# MEASUREMENT_CONDITIONS: HCT-116, 8 h
Parameter: IC50. Scope: all listed entries.

COMPOUND	CENSORING_SIGN	IC50 [nM]
CN1c2ccc(F)cc2C(=O)N2CCc3c([nH]c4ccc(OCc5ccc(/C=C/C(=O)Nc6ccccc6N)cc5)cc34)C21 (stereo not given)	>	2000
CN1c2ccc(F)cc2C(=O)N2CCc3c([nH]c4ccc(OCc5ccccc5C(=O)NO)cc34)C21 (stereo not given)	=	150
CN1c2ccc(F)cc2C(=O)N2CCc3c([nH]c4ccc(OCCCCCCC(=O)NO)cc34)C21 (stereo not given)	=	830
CN1c2ccc(F)cc2C(=O)N2CCc3c([nH]c4ccc(OCCCCCC(=O)NO)cc34)C21 (stereo not given)	=	120
CN1c2ccc(F)cc2C(=O)N2CCc3c([nH]c4ccc(OCCCCC(=O)Nc5ccccc5N)cc34)C21 (stereo not given)	=	600
